- Experiment Notes: in vitro
- Run Conditions: serum
Reported Property: remaining at 24 h, 400 μM

Value lookup for remaining at 24 h, 400 μM; key = CCCCS(=N)(=O)CC[C@H](NC(=O)[C@H](CC(=O)O)NC(=O)[C@@H](NC(=O)[C@H](CCC(=O)O)NC(=O)[C@H](CC(=O)O)NC(=O)CCC(=O)NCCSSCCNC(=O)[C@H](Cc1ccc(O)cc1)NC(=O)[C@@H](Cc1ccccc1)NC(=O)[C@@H](Cc1ccccc1)NC(=O)Cc1ccc2ccccc2c1)C(C)C)C(=O)O (stereo partly shown)
> 50%
